The reader will find reported self-splicing fitness (ln) values listed item by item below.
Test: self-splicing fitness, log relative to wild type (ln ratio); higher = more splicing; Tetrahymena group I intron in knt gene, E. coli kanamycin selection, DiMSum; sequences stand for … in CUCUCU…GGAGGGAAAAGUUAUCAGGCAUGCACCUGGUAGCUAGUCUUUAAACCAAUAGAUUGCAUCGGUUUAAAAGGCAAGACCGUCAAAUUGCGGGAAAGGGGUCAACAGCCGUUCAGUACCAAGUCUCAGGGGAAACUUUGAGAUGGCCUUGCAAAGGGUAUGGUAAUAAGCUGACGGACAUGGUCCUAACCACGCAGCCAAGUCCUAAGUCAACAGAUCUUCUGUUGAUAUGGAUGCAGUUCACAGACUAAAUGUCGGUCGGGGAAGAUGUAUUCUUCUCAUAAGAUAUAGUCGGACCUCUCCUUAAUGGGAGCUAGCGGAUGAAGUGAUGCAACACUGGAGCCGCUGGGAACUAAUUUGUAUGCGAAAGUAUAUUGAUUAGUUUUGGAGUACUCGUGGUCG;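 note: selection with 25 µg/mL kanamycin versus none on LB agar overnight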
Conditions: 30 °C
property-label: self-splicing fitness (ln)

1) GAAGAGCAAUAUUACGGGGU    -3.09
2) CAACAGCAAUAUUACGUACG    -0.0141
3) GGAGAGCAAUAUUACGCGCU    -2.69
4) CCCCAGCAAUAUUACGGUAG    -2
5) GCUUAGCAAUAUUACGUUAG    -1.56
6) AGACAGCAAUAUUACGUGCA    -0.683
7) CCUAAGCAAUAUUACGCUAU    -4.71
8) AAUUAGCAAUAUUACGCCUU    -0.243
9) GACAAGCAAUAUUACGAGGA    -3.16
10) CCGGAGCAAUAUUACGUCUG    -1.22
11) AGGCAGCAAUAUUACGACUC    -1.65
12) GAAGAGCAAUAUUACGCGGA    -2.64
13) AUAUAGCAAUAUUACGACCC    -1.24
14) UAUCAGCAAUAUUACGGGCA    -0.0174
15) UACAAGCAAUAUUACGUUGG    -3.19
16) CAAAAGCAAUAUUACGUACG    -0.125
17) UCCUAGCAAUAUUACGCACG    -3.34
18) UAGAAGCAAUAUUACGCUCA    0.205
19) GCUAAGCAAUAUUACGUAAU    -0.775
20) GGCAAGCAAUAUUACGGCAC    -0.671
21) CGGAAGCAAUAUUACGAAAU    -3.59
22) UAUCAGCAAUAUUACGCUCU    0.148

----------
Assay: self-splicing fitness, log relative to wild type (ln ratio); higher = more splicing; Tetrahymena group I intron in knt gene, E. coli kanamycin selection, DiMSum; sequences stand for … in CUCUCU…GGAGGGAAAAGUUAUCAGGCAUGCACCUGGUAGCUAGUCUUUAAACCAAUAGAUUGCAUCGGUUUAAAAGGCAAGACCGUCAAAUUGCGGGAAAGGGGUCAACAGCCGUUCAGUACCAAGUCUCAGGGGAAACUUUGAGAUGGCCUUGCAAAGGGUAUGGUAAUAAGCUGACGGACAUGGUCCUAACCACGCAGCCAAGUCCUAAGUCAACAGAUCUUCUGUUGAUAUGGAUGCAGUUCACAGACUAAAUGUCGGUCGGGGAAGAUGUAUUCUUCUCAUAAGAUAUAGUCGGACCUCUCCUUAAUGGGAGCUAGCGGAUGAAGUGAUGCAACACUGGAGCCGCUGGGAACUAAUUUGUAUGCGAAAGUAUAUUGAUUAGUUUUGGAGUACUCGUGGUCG
Settings: 37 °C
property-label: self-splicing fitness (ln)

1. AAGCAGCAAUAUUACGGUGG    -1.98
2. CUCUAGCAAUAUUACGCACG    -1.95
3. UAAGAGCAAUAUUACGUAUA    -1.97
